tested on: SF-268 CNS; assay: NCI tumour cell line growth inhibition, 48 h
Where a SMILES comes first, the peptide text is derived from it. [ ]: non-standard residue; d: D form. The star is where a group is joined. ξ: configuration not given here. NMeF = CN[C@@H](Cc1ccccc1)C(=O)O; NMeN = CN[C@@H](CC(N)=O)C(=O)O; NMeV = CN[C@H](C(=O)O)C(C)C; ξNMeV = CNC(C(=O)O)C(C)C; Boc = CC(C)(C)OC(=O)*; ξNMeA = CNC(C)C(=O)O; ξV = CC(C)C(N)C(=O)O
measured.parameter: GI50

{"columns": ["compound", "measured.parameter", "result"],
 "data": [
  ["COC(=O)CCC1=C(C)C(C)=N/C1=C\\c1[nH]c(-c2ccc[nH]2)cc1OC", "GI50", "0.935 µM"],
  ["CC(C)=C[C@@H]1C[C@H](C)[C@H]2CC[C@H](C)c3c(O)c(OC4OCC(O)C(O)C4O)c(C)c1c32 (stereo partly drawn)", "GI50", "12.4 µM"],
  ["COC(=O)C1C(O)C(C)C(O)C(C)(O)/C=C/C=C(C)C(=O)Nc2c(C)c(OC(C)=O)c3c(c2O)C(=O)C(C)=C2OCOC(=C23)C(C)=CC(C)(O)C(O)C(C)C1OC(C)=O (stereo not drawn)", "GI50", "39.9 µM"],
  ["Nc1c(C(=O)c2cccc(-c3ccncc3)c2)cnn1-c1ccc(F)cc1", "GI50", "> 25 µM"],
  ["Clc1ccc(-c2nc(-c3ccccc3)cn3ccnc23)cc1", "GI50", "10.6 µM"],
  ["CNC[C@@H](NC(=O)c1ccc(-c2nc([C@H]3CC[C@H](O)[C@@H](F)C3)cnc2N)cc1F)c1cc(F)cc(Br)c1", "GI50", "12.6 µM"],
  ["CS(=O)(=O)OCCn1c2c(c3c(O)cccc31)C(=O)c1ccccc1-2", "GI50", "78.5 µM"],
  ["C=C(C)[C@@H]1CC[C@]2(C)[C@H](CC[C@@H]3[C@@H]([C@@](C)(O)CCC=C(C)C)CC[C@]32C)[C@@]1(C)CCC(=O)N1CCN(C)CC1", "GI50", "13.1 µM"],
  ["CCCCCCCCCOc1c(OC)cc(C2CC(=O)Nc3c2c(C)nn3-c2nc3ccccc3[nH]2)cc1OC (stereo not drawn)", "GI50", "1.04 µM"],
  ["COC(=O)C(C)N(C)C(=O)[C@H](CC(N)=O)N(C)C(=O)[C@@H]1CCCN1C(=O)[C@H](C(C)C)N(C)C(=O)C(C(C)C)N(C)C(=O)[C@H](Cc1ccccc1)N(C)C(=O)C(NC(=O)OC(C)(C)C)C(C)C (stereo partly drawn) (Boc-[ξV][NMeF][ξNMeV][NMeV]P[NMeN][ξNMeA]-OMe)", "GI50", "15.6 µM"],
  ["O=C(C1CC1)N1CC[C@@H](Cc2n[nH]c(=O)n2-c2ccc(-c3ccc4occc4c3)cc2)C1", "GI50", "12.4 µM"],
  ["C1CCC(C(CC2CCCCN2)C2CCCCC2)CC1 (stereo not drawn)", "GI50", "1.77 µM"],
  ["CN1C(=O)C23CC4(C56CC78SSC(CO)(C(=O)N7C5Nc5ccccc56)N(C)C8=O)c5ccccc5NC4N2C(=O)C1(CO)SS3 (stereo not drawn)", "GI50", "0.0807 µM"]
]}
